All values here come from paper PMC5933782.

SYSTEM_TESTED: CLK2 (Mus musculus, UniProt O35491)
Sequence (O35491 whole entry): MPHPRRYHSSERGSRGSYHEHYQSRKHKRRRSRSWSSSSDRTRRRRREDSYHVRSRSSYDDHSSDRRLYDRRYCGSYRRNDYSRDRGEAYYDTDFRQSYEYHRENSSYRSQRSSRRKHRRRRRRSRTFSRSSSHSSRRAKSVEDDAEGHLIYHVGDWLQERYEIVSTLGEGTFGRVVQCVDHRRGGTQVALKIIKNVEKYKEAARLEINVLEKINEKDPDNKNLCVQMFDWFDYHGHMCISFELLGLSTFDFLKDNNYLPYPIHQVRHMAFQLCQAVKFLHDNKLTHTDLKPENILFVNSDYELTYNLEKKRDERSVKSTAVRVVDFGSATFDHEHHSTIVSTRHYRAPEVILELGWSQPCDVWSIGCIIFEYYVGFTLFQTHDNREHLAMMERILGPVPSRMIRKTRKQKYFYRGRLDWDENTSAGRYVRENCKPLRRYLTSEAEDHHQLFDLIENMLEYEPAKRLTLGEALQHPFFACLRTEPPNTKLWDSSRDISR
The label true is reserved for IC50 strictly under 500 nM; false covers values equal to or above it.

[[record]]
compound = "Cc1[nH]c2c3c(c(Br)cc2c1-c1ccccc1)CNC3=O [12b]"
class_assignment = "true"

[[record]]
compound = "O=C1NCc2ccc3c(-c4ccccc4)c(Br)[nH]c3c21 [compound 16]"
class_assignment = "true"

[[record]]
compound = "O=C1NCc2c(-c3cccc(F)c3)cc3c(-c4ccccc4)c[nH]c3c21 [17c]"
class_assignment = "false"

[[record]]
compound = "CN1Cc2ccc3c(-c4ccccc4)c[nH]c3c2C1=O [12d]"
class_assignment = "false"

[[record]]
compound = "O=C1NCc2c(-c3ccccc3)cc3c(-c4ccccc4)c[nH]c3c21 [17a]"
class_assignment = "false"

[[record]]
compound = "NC(=O)Cn1cc(-c2ccccc2)c2ccc3c(c21)C(=O)NC3 [15c]"
class_assignment = "false"

[[record]]
compound = "CC(=O)Oc1cccc(-c2c[nH]c3c4c(ccc23)CNC4=O)c1 [8h]"
class_assignment = "true"

